Origin of values: ChEMBL document CHEMBL1129853

Target sequence: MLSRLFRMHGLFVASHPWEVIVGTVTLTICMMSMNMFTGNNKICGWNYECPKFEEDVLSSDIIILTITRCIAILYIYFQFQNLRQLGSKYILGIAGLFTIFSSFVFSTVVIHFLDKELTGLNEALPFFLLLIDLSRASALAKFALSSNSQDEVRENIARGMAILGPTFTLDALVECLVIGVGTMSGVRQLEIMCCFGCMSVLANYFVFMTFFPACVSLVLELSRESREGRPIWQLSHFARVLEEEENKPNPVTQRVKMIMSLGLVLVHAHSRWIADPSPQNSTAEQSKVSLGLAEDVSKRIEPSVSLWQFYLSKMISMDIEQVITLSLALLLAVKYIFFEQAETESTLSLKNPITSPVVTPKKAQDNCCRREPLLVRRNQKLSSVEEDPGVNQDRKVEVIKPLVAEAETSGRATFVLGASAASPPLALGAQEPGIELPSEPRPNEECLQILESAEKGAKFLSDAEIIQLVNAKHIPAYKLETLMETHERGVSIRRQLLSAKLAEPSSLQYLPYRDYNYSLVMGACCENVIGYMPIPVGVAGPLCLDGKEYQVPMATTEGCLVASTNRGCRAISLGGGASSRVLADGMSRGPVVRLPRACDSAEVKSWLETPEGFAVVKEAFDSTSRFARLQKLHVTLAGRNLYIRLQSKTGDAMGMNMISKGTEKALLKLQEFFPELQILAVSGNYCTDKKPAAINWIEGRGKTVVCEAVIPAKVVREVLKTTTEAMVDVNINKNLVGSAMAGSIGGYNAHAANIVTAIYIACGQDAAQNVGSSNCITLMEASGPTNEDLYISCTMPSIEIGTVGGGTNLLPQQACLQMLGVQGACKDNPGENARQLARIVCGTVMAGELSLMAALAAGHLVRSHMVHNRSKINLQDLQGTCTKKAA
endpoint: pIC50
Entry type: numeric. Quantity: pIC50, the -log10 of concentration in molar units.

Input line: Look up pIC50: CC[C@H](C)C(=O)O[C@H]1C[C@@H](C)C=C2C=C[C@H](C)[C@H](CC[C@@H]3C[C@@H](O)CC(=O)O3)[C@H]21 [LOVASTATIN]
Output line: 6.28

Input line: # query: pIC50 of entry COCCOCc1sc(C(C)C)c(/C=C/[C@@H](O)C[C@@H](O)CC(=O)O)c1-c1ccc(F)cc1
Output line: 6.69

Input line: Param item = CC(C)=Cc1sc(C(C)C)c(/C=C/[C@@H](O)C[C@@H](O)CC(=O)[O-])c1-c1ccc(F)cc1.[Na+] ; retrieve measured pIC50.
Output line: 7.82

Input line: For the compound shown here, CC(C)c1sc(-c2ccccc2)c(-c2cccc(F)c2)c1/C=C/[C@@H](O)C[C@@H](O)CC(=O)O , give the reported pIC50.
Output line: 7.31

Input line: Any idea what its pIC50 is? The compound is CC(C)c1sc(CO)c(-c2ccc(F)cc2)c1/C=C/[C@@H](O)C[C@@H](O)CC(=O)O
Output line: 6.49

Input line: Reported pIC50, compound CC(C)c1sc(-c2ccccc2)c(-c2ccccc2)c1/C=C/[C@@H](O)C[C@@H](O)CC(=O)[O-].[Na+] : ____
Output line: 7.59

Input line: Entry CC(C)c1sc(C(C)C)c(-c2ccc(F)cc2)c1/C=C/[C@@H](O)C[C@@H](O)CC(=O)[O-].[Na+] has what pIC50?
Output line: 7.59

Input line: Given the entry CC(C)c1sc(C2CCCC2)c(-c2ccc(F)cc2)c1/C=C/[C@@H](O)C[C@@H](O)CC(=O)O , report its measured pIC50.
Output line: 6.24
